All figures here come from ChEMBL document CHEMBL2375240.

Form: system (Carbonic anhydrase 1 (Homo sapiens)), quantity (Ki), values below.
Give your result in µM as a bare value.

line-notation	uom	Ki
Nc1ccc2nc(S(N)(=O)=O)sc2c1	µM	0.055

Now examine the next entry.
For the compound NS(=O)(=O)c1nc2ccc(OCCO)cc2s1 , report Ki. 23
